log10 IC50 for assorted compounds
- Test system: SUDHL5 cells
- Protocol text: Antiproliferation assay SUDHL5 (Assay 7)
- Type: cell-based
- Protocol conditions: Homo sapiens, SU-DHL-5, 72 h, 72 h, CellTiter-Glo; read-out: Antiproli SUDHL5 IC50 (median)
Lab note - IC50 converted to log10 from values in nM.

Below, each entry is followed by its recorded log10 IC50 result.
CCc1c2c(nn1C)C(CCN1CCN(C)CC1)OCCCCn1c(C(=O)O)c(CCCOc3cccc4cc(F)ccc34)c3ccc(Cl)c-2c31 (single isomer, unassigned; stereoisomer 4)    3.79
Cc1c2c(nn1C)C(CCN1CCOCC1)OCCCCn1c(C(=O)O)c(CCCOc3cccc4cc(F)ccc34)c3ccc(F)c-2c31 (racemic) [Example 19]    1.89
CCc1c2c(nn1C)C(CCOC)OCCCCn1c(C(=O)O)c(CCCOc3cccc4cc(F)ccc34)c3ccc(Cl)c-2c31 (racemic)    2.20
CCc1c2c(nn1C)C(CCN1CC(F)C1)OCCCCn1c(C(=O)O)c(CCCOc3cccc4cc(F)ccc34)c3ccc(Cl)c-2c31 (racemic)    1.85
CCC1OCCCCn2c(C(=O)O)c(CCCOc3cccc4ccccc34)c3ccc(Cl)c(c32)-c2c1nn(C)c2C (racemic)    3.36

The compound CCc1c2c(nn1C)C(CCN1CCC(F)(F)C1)OCCCCn1c(C(=O)O)c(CCCOc3cccc4cc(F)ccc34)c3ccc(Cl)c-2c31 (racemic) [Example 55] , tested on SUDHL5 cells, showed log10 IC50 of 1.83
